- Tested on: Human alphaherpesvirus 2
- procedureSummary: Antiviral activity against Herpes simplex virus type 2 infected in HEL cells
- Assay type: functional, organism-based
- details: Human alphaherpesvirus 2, HEL
propertyLabel: EC50 (mM)

                           molecule  propertylabel  recordedmeasurement
0  NC(=O)C(N)O (stereo unspecified)           EC50                    2

* * *

- Test system: Human immunodeficiency virus 1
- procedureSummary: Antiviral activity against reverse transcriptase and protease inhibitor-resistant HIV-1 isolate HI98-80 harboring reverse transcriptase M41L, D67N, M184V, T215F, K219Q and protease M36I mutant gene infected in human PBMC
- Format: functional, organism-based
- details: Human immunodeficiency virus 1, isolate HI98-80
pEC50: −log10 of the molar value.
propertyLabel: pEC50

>>> df
                           compound  recordedmeasurement
0  NC(=O)C(N)O (stereo unspecified)                 5.26

* * *

- Test system: Human immunodeficiency virus 1
- procedureSummary: Antiviral activity against reverse transcriptase and protease inhibitor-resistant HIV-1 isolate HI98-96 harboring reverse transcriptase D67N, T69N, K70R, A98G, M184V, T215F, K219Q and protease L63P, G73T, D60E, L90M mutant gene infected in human PBMC
- Assay type: functional, organism-based
- details: Human immunodeficiency virus 1, isolate HI98-96
pEC50: −log10 of the molar value.
propertyLabel: pEC50

                           compound  propertylabel  recordedmeasurement
0  NC(=O)C(N)O (stereo unspecified)          pEC50                 5.34

* * *

- Test system: Human immunodeficiency virus 1
- procedureSummary: Antiviral activity against reverse transcriptase and protease inhibitor-resistant HIV-1 isolate HI90-317 harboring reverse transcriptase M41L, T215Y and protease M36I, […], A71T, I93L mutant gene infected in human PBMC
- Format: functional, organism-based
- details: Human immunodeficiency virus 1, isolate HI90-317
propertyLabel: EC50 (µM)

In [3]: df
Out[3]:
                           compound                    targetentity  recordedmeasurement
0  NC(=O)C(N)O (stereo unspecified)  Human immunodeficiency virus 1                   20

* * *

- System: Vesicular stomatitis virus
- procedureSummary: Antiviral activity against Vesicular stomatitis virus infected in human HeLa cells
- Type: functional, organism-based
propertyLabel: EC50 (µM)

                           compound  recordedmeasurement
0  NC(=O)C(N)O (stereo unspecified)                 2000
